- System: IGROV1
- Measurement description: NCI single dose screen, IGROV1
- Type: cell-based
- Conditions: Homo sapiens, IGROV-1; IGROV1, ovarian cancer; single dose 10^−5 M; read-out: growth inhibition percentage
- Description: Screening of the anticancer activity of the newly synthesised compounds (6a, 6c, 6d, 6e, 6j, 6l, 6m, 6n, 6o, and 6p) was performed by the US National Cancer Institute (NCI) using 60 different human tumour cell lines in accordance with standard procedures formerly reported. […]
Readout label: inhibition at 10 µM

Look up inhibition at 10 µM: COc1ccc(C2N(NC(=O)Nc3ccc(F)cc3)C(=O)c3ccccc3N2C)cc1 (stereo not shown) [Compound 6p]
< 10%

Look up inhibition at 10 µM: COc1ccc(NC(=O)NN2C(=O)c3ccccc3N(C)C2c2ccc(OC)cc2)cc1 (stereo not shown) [Compound 6j]
< 10%

Look up inhibition at 10 µM: CN1CN(NC(=O)Nc2ccccc2)C(=O)c2ccccc21 [Compound 6a]
< 10%

Look up inhibition at 10 µM: CN1c2ccccc2C(=O)N(NC(=O)Nc2ccccc2)C1c1ccccc1 (stereo not shown) [Compound 6c]
< 10%

Look up inhibition at 10 µM: CC1N(NC(=O)Nc2ccc(F)cc2)C(=O)c2ccccc2N1C (stereo not shown) [Compound 6l]
< 10%

Look up inhibition at 10 µM: CN1c2ccccc2C(=O)N(NC(=O)Nc2ccccc2)C1c1ccc([N+](=O)[O-])cc1 (stereo not shown) [Compound 6e]
< 10%

Look up inhibition at 10 µM: CN1c2ccccc2C(=O)N(NC(=O)Nc2ccc(F)cc2)C1c1ccc([N+](=O)[O-])cc1 (stereo not shown) [Compound 6o]
< 10%

Look up inhibition at 10 µM: CN1c2ccccc2C(=O)N(NC(=O)Nc2ccc(F)cc2)C1c1ccc(F)cc1 (stereo not shown) [Compound 6n]
< 10%

Look up inhibition at 10 µM: CN1c2ccccc2C(=O)N(NC(=O)Nc2ccc(F)cc2)C1c1ccccc1 (stereo not shown) [Compound 6m]
< 10%

Look up inhibition at 10 µM: CN1c2ccccc2C(=O)N(NC(=O)Nc2ccccc2)C1c1ccc(F)cc1 (stereo not shown) [Compound 6d]
< 10%

* * *

Assignment: determine reported inhibition at 10 µM for the given compounds.
- Test system: SR
- Measurement description: NCI single dose screen, SR
- Format: cell-based
- Conditions: Homo sapiens, leukaemia, single dose 10^−5 M, read-out: growth inhibition percentage

Look up inhibition at 10 µM: COc1ccc(C2N(NC(=O)Nc3ccc(F)cc3)C(=O)c3ccccc3N2C)cc1 (stereo not shown) [Compound 6p]
< 10%

Look up inhibition at 10 µM: CN1c2ccccc2C(=O)N(NC(=O)Nc2ccccc2)C1c1ccc([N+](=O)[O-])cc1 (stereo not shown) [Compound 6e]
< 10%

Look up inhibition at 10 µM: CN1c2ccccc2C(=O)N(NC(=O)Nc2ccccc2)C1c1ccc(F)cc1 (stereo not shown) [Compound 6d]
< 10%

Look up inhibition at 10 µM: COc1ccc(NC(=O)NN2C(=O)c3ccccc3N(C)C2c2ccc(OC)cc2)cc1 (stereo not shown) [Compound 6j]
11.6%

Look up inhibition at 10 µM: CC1N(NC(=O)Nc2ccc(F)cc2)C(=O)c2ccccc2N1C (stereo not shown) [Compound 6l]
< 10%

Look up inhibition at 10 µM: CN1c2ccccc2C(=O)N(NC(=O)Nc2ccc(F)cc2)C1c1ccccc1 (stereo not shown) [Compound 6m]
< 10%

Look up inhibition at 10 µM: CN1c2ccccc2C(=O)N(NC(=O)Nc2ccc(F)cc2)C1c1ccc([N+](=O)[O-])cc1 (stereo not shown) [Compound 6o]
12.2%

Look up inhibition at 10 µM: CN1CN(NC(=O)Nc2ccccc2)C(=O)c2ccccc21 [Compound 6a]
< 10%

Look up inhibition at 10 µM: CN1c2ccccc2C(=O)N(NC(=O)Nc2ccc(F)cc2)C1c1ccc(F)cc1 (stereo not shown) [Compound 6n]
14.4%

Look up inhibition at 10 µM: CN1c2ccccc2C(=O)N(NC(=O)Nc2ccccc2)C1c1ccccc1 (stereo not shown) [Compound 6c]
< 10%

* * *

Sequence of the target: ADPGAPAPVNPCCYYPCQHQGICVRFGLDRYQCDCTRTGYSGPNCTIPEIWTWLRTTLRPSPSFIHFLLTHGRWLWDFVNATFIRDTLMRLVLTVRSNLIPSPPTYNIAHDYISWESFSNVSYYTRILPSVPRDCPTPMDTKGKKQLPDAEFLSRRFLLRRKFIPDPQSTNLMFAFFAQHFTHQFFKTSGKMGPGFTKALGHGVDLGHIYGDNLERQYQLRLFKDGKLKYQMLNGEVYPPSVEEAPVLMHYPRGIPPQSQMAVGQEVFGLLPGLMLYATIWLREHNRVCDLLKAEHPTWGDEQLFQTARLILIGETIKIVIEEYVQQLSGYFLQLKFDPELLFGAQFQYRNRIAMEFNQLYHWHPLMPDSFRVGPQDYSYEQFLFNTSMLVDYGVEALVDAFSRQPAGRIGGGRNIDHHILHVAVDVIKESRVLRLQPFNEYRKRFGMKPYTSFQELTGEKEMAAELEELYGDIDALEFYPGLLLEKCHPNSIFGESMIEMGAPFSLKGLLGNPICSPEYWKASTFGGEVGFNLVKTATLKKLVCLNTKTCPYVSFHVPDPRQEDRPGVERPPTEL
Output Met for records whose IC50 is lower than 10 µM, Not met for records at or above 10 µM.

# check: IC50 < 10 µM for CN1c2ccccc2C(=O)N(NC(=O)Nc2ccccc2)C1c1ccccc1 (stereo not drawn)
Met

# check: IC50 < 10 µM for CN1c2ccccc2C(=O)N(NC(=O)Nc2ccc(F)cc2)C1c1ccccc1 (stereo not drawn)
Not met

# check: IC50 < 10 µM for "CN1CN(NC(=O)Nc2ccccc2)C(=O)c2ccccc21"
Not met

# check: IC50 < 10 µM for CN1c2ccccc2C(=O)N(NC(=O)Nc2ccccc2)C1c1ccc([N+](=O)[O-])cc1 (stereo not drawn)
Met

# check: IC50 < 10 µM for CN1c2ccccc2C(=O)N(NC(=O)Nc2ccc(F)cc2)C1c1ccc(F)cc1 (stereo not drawn)
Not met

# check: IC50 < 10 µM for CN1c2ccccc2C(=O)N(NC(=O)Nc2ccccc2)C1c1ccc(F)cc1 (stereo not drawn)
Met

# check: IC50 < 10 µM for COc1ccc(NC(=O)NN2C(=O)c3ccccc3N(C)C2c2ccc(OC)cc2)cc1 (stereo not drawn)
Not met

# check: IC50 < 10 µM for COc1ccc(C2N(NC(=O)Nc3ccc(F)cc3)C(=O)c3ccccc3N2C)cc1 (stereo not drawn)
Not met

# check: IC50 < 10 µM for CN1c2ccccc2C(=O)N(NC(=O)Nc2ccc(F)cc2)C1c1ccc([N+](=O)[O-])cc1 (stereo not drawn)
Not met

* * *

- Tested on: SF-539
- Measurement description: NCI single dose screen, SF-539
- Assay type: cell-based
- Conditions: Homo sapiens, read-out: growth inhibition percentage
Readout label: inhibition at 10 µM

Look up inhibition at 10 µM: CN1c2ccccc2C(=O)N(NC(=O)Nc2ccccc2)C1c1ccccc1 (stereo not drawn)
< 10%

Look up inhibition at 10 µM: CC1N(NC(=O)Nc2ccc(F)cc2)C(=O)c2ccccc2N1C (stereo not drawn)
< 10%

Look up inhibition at 10 µM: COc1ccc(C2N(NC(=O)Nc3ccc(F)cc3)C(=O)c3ccccc3N2C)cc1 (stereo not drawn)
< 10%

Look up inhibition at 10 µM: COc1ccc(NC(=O)NN2C(=O)c3ccccc3N(C)C2c2ccc(OC)cc2)cc1 (stereo not drawn)
< 10%

Look up inhibition at 10 µM: "CN1CN(NC(=O)Nc2ccccc2)C(=O)c2ccccc21"
< 10%

Look up inhibition at 10 µM: CN1c2ccccc2C(=O)N(NC(=O)Nc2ccc(F)cc2)C1c1ccc([N+](=O)[O-])cc1 (stereo not drawn)
< 10%

* * *

- System: UO-31
- Measurement description: NCI single dose screen, UO-31
- Assay type: cell-based
- Conditions: Homo sapiens; UO-31, renal cancer; single dose 10^−5 M; read-out: growth inhibition percentage
- Procedure: Screening of the anticancer activity of the newly synthesised compounds (6a, 6c, 6d, 6e, 6j, 6l, 6m, 6n, 6o, and 6p) was performed by the US National Cancer Institute (NCI) using 60 different human tumour cell lines in accordance with standard procedures formerly reported. […]
Assignment: determine reported inhibition at 10 µM for the given compounds.
# unit: % | format: bare number

Look up inhibition at 10 µM: CN1c2ccccc2C(=O)N(NC(=O)Nc2ccc(F)cc2)C1c1ccccc1 (stereo not drawn) [Compound 6m]
40.1

Look up inhibition at 10 µM: CN1c2ccccc2C(=O)N(NC(=O)Nc2ccc(F)cc2)C1c1ccc([N+](=O)[O-])cc1 (stereo not drawn) [Compound 6o]
41.3

Look up inhibition at 10 µM: CN1c2ccccc2C(=O)N(NC(=O)Nc2ccccc2)C1c1ccc([N+](=O)[O-])cc1 (stereo not drawn) [Compound 6e]
14.4

Look up inhibition at 10 µM: CN1c2ccccc2C(=O)N(NC(=O)Nc2ccc(F)cc2)C1c1ccc(F)cc1 (stereo not drawn) [Compound 6n]
57.1
